B1: Caulobacter ParB omega fusion; a variant is named by its letters at X, in order, B8GW30 (parent)
chain: MESVVVGEPGMSEGRRGLGRGLSALLGEVDAAPAQAPGEQLGGSREAPIEILQRNPDQPRRTFREEDLEDLSNSIREKGVLQPILVRPSPDTAGEYQIVAGERAWRAAQRAGLKTVPIMVRELDDLAVLEIGIIENVQRADLNVLEEALSYKVLMEKFERTQENIAQTIGKSXSHVANXMRLLXLPDEVQSYLVSGELTAXHARAIAAAADPVALAKQIIEGGLSVRETEALARKAPNLSAGKSKGGRPPRVKDTDTQALESDLSSVLGLDVSIDHRGSTGTLTITYATLEQLDDLCNRLTRGI

# Variants of: B1
# PROTOCOL_TEXT: one-hybrid fitness for binding NBS DNA (the Noc-binding site; scaled: cognate 1, non-cognate 0); higher = stronger binding
# MEASUREMENT_PARAMETERS: with NBS DNA site
Whole data set: some 81,000 sequences, median “one-hybrid fitness for binding NBS DNA” near -0.1, cut for the highest 2% near 0.36. This excerpt belongs to a sample that is enriched for the highest values.
QUANTITY_MEASURED: one-hybrid fitness for binding NBS DNA

# RESIDUE_CHANGE, one-hybrid fitness for binding NBS DNA
rows = [
    ("VSMY", "≤ 0.2"),
]

## Task For the variant ARFF , report one-hybrid fitness for binding NBS DNA.
## Result ≤ 0.2
